Form field: inhibition (one value per entry).
Molecular target: 2-Hydroxyacid oxidase 2 (Homo sapiens)
Sequence (whole entry): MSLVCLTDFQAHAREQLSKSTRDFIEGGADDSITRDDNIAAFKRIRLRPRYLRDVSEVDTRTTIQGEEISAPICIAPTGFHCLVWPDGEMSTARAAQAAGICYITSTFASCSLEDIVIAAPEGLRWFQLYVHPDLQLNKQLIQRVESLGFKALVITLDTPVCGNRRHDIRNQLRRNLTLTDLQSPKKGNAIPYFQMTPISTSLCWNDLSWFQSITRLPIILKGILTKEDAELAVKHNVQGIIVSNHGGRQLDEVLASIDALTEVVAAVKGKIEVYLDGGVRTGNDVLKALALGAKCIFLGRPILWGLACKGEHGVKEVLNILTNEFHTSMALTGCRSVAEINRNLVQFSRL
Experiment: Inhibition of human Hao2-mediated oxidation of 2-hydroxyoctanoic acid assessed as proportionate release of H2O2 at 1 uM
Could you give me the number in %? Just the number is fine.

Cc1n[nH]c(C(=O)O)c1Cc1cc2ccccc2o1 = 26
Cc1n[nH]c(C(N)=O)c1Cc1cccc(-c2ccc(F)cc2)c1 = 1
Cc1n[nH]c(C(=O)O)c1Cc1ccc(-c2ccc(F)cc2)cc1 = 11
Cc1n[nH]c(C(=O)O)c1Cc1cccc(-c2ccc(C(N)=O)cc2)c1 = 18
Cc1n[nH]c(C(=O)O)c1Cc1ccc2ccccc2n1 = 2

inhibition for 2-Hydroxyacid oxidase 2 (Homo sapiens) with input `Cc1n[nH]c(C(=O)O)c1Cc1ccccc1C(F)(F)F` equals 13

Field inhibition (system: 2-Hydroxyacid oxidase 2 (Homo sapiens)) for entry `Cc1n[nH]c(C(=O)O)c1Cc1ccc(C(F)(F)F)cc1` = 9

Reported 2-Hydroxyacid oxidase 2 (Homo sapiens) inhibition for item `Cc1n[nH]c(C(=O)O)c1Cc1cc2ccccc2s1` was 8

Reading of inhibition for `CCc1n[nH]c(C(=O)O)c1Cc1cccc(-c2ccc(F)cc2)c1` with 2-Hydroxyacid oxidase 2 (Homo sapiens): 5

// compound `Cc1n[nH]c(C(=O)O)c1Cc1ccccc1Oc1ccccc1` , assay 2-Hydroxyacid oxidase 2 (Homo sapiens), inhibition value: 9

# lookup: `Cc1n[nH]c(C(=O)O)c1CCc1ccc(F)cc1` on 2-Hydroxyacid oxidase 2 (Homo sapiens), inhibition = 5

Reported inhibition (2-Hydroxyacid oxidase 2 (Homo sapiens)) for entry `O=C(O)c1[nH]nc(CCc2ccccc2)c1Cc1cccc(-c2ccc(F)cc2)c1` is 4

Readout inhibition for `Cc1n[nH]c(C(=O)O)c1-c1ccc(-c2ccc(F)cc2)cc1` , test system 2-Hydroxyacid oxidase 2 (Homo sapiens), was 19

Entry `Cc1n[nH]c(C(=O)O)c1Cc1ccc2ccccc2c1` , tested on 2-Hydroxyacid oxidase 2 (Homo sapiens), has a reported inhibition of 8
